- study_target: ΔF508-CFTR (Homo sapiens, UniProt P13569, DEL508-508)
- Construct: host or cells: CFBE41o-, doxycycline-inducible
- Sequence (P13569 with tags, fused parts or gaps DEL508-508): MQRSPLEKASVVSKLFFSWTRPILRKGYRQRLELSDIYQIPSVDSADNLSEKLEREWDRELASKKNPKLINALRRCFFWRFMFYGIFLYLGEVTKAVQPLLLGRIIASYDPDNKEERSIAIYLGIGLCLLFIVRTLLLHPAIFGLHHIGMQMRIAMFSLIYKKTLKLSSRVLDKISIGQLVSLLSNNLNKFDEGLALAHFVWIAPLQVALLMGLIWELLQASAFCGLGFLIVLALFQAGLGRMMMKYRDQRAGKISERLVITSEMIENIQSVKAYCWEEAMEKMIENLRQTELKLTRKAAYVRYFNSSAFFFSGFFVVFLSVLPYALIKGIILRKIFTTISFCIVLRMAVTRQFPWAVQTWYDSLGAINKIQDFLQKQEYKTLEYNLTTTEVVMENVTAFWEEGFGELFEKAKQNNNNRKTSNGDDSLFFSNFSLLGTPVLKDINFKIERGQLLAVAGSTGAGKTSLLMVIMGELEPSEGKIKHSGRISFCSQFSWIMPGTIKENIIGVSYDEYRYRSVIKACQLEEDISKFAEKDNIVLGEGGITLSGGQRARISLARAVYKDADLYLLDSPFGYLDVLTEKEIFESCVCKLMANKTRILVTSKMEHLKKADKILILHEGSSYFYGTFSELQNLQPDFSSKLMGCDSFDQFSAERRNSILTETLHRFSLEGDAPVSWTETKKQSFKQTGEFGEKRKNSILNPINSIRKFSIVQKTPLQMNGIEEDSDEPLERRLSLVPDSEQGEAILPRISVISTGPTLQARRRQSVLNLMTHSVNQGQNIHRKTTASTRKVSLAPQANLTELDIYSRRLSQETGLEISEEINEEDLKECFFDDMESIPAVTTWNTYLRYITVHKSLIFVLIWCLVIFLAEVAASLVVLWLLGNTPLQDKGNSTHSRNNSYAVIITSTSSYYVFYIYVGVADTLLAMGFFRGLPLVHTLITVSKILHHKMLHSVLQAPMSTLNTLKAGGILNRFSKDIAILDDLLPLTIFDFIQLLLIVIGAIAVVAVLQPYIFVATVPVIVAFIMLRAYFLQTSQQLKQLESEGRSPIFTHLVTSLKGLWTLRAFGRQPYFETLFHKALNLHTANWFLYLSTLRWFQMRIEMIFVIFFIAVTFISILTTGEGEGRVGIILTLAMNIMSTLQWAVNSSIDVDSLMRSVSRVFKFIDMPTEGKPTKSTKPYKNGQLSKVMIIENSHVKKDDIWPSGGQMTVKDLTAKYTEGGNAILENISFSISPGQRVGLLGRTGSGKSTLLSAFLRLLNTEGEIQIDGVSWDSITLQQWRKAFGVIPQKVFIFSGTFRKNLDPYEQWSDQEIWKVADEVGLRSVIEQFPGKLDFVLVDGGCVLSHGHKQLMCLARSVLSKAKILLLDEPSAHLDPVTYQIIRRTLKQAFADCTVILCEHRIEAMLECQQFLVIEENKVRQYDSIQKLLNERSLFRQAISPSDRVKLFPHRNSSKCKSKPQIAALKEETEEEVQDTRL
- protocol: CFTR cell surface levels using HRP-tagged ΔF508-CFTR expressing CFBE cells, in the presence of a co-corrector
- Assay type: cell-based
- measurement_setup: HRP-tagged ΔF508-CFTR CFBE cells, in the presence of 3 μM co-corrector
# % Activation annotations
measured_attribute: % Activation (%)

>>> print(df.to_string())
                                   compound  numeric_readout
0  CN(C)S(=O)(=O)NC(=O)c1cc(N2CCC(N3CCC(C(F)(F)F)C3)CC2)c2c(C3CCC3)nn(-c3ccc(F)cc3)c2n1 (stereo not drawn) [Compound 560]           544.45
1  O=C(NS(=O)(=O)N1CCOCC1)c1cc(N2CCC(N3CCN(C4CC4)CC3)CC2)c2c(C3CCC3)nn(-c3ccccc3)c2n1 [Compound 555]           432.55
2  CC1(S(=O)(=O)NC(=O)c2cc(N3CCC(CN4CCCC4)CC3)c3c(C4CCC4)nn(-c4ccccc4)c3n2)CC1 [Compound 461]            364.1
